Biological target: GlcNAc(b1-4)GlcNAc(b1-4)GlcNAc(b1-4)GlcNAc(b1-4)GlcNAc
Assay: glycan array binding signal (z-score within array); higher = stronger binding
Details: glycan notation: IUPAC condensed, linker removed
About 410 targets per protein were measured; listed, in parts, are those with the strongest signals and a random draw of the rest.
OBSERVED_PROPERTY: glycan array binding signal (z-score)
# respond with the number and nothing more

Completed entries (count: 4):
| BINDER | OBSERVED_PROPERTY | VALUE_REPORTED |
| --- | --- | --- |
| SLLPI (Mus musculus), Q9D9X8 (protein) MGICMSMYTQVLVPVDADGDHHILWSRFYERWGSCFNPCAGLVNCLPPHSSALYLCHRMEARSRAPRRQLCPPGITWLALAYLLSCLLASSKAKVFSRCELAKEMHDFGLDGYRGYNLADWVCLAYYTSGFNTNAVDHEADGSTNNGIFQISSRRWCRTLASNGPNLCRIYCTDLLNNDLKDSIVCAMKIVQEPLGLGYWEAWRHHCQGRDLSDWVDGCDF | glycan array binding signal (z-score) | -0.401 |
| rCnSL-A (Clitocybe nebularis) (protein) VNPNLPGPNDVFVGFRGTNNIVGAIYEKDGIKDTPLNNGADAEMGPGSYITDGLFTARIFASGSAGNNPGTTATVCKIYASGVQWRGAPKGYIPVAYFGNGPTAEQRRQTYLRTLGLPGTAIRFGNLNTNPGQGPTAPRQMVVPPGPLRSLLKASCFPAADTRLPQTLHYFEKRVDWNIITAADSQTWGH | glycan array binding signal (z-score) | -0.217 |
| TIM-1 (Mus musculus), AAL35774 (protein) MNQIQVFISGLILLLPGAVDSYVEVKGVVGHPVTLPCTYSTYRGITTTCWGRGQCPSSACQNTLIWTNGHRVTYQKSSRYNLKGHISEGDVSLTIENSVESDSGLYCCRVEIPGWFNDQKVTFSLQVKPEIPTRPPTRPTTTRPTATGRPTTISTRSTHVPTSIRVSTSTPPTSTHTWTHKPEPTTFCPHETTAEVTGIPSHTPTDWNGTVTSSGDTWSNHTEAIPPGKPQKNPTKGFYVGICIAALLLLLLVSTVAITRYILMKRKSASLSVVAFRVSKIEALQNAAVVHSRAEDNIYIVEDRP | glycan array binding signal (z-score) | 1.29 |
| Gal 8 (Mus musculus), Q9JL15 (protein) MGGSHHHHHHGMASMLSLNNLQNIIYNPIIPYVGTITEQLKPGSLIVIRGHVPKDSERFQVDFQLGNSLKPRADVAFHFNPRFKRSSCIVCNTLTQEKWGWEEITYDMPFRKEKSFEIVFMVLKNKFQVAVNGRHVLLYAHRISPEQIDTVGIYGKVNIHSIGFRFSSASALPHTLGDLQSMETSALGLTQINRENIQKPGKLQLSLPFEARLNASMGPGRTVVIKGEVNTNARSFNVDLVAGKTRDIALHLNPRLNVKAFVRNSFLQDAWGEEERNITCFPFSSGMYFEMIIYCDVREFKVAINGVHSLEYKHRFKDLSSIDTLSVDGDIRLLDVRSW | glycan array binding signal (z-score) | -0.54 |

Let us move to another entry and its glycan array binding signal (z-score).
Documented glycan array binding signal (z-score) of CD34 (Homo sapiens), P28906 (protein) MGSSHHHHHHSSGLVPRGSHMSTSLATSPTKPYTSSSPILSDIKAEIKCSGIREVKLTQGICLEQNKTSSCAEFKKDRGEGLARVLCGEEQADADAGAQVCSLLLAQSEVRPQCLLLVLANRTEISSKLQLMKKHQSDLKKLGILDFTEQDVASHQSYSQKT : 0.087
